System: M. tuberculosis H37Rv growth inhibition
testDetails: M. tuberculosis H37Rv growth inhibitors, H37Rv strain (AID 1626)
In this section we review reported IC50 values for a set of compounds.
measurementLabel: IC50

- O=C(Nc1ccc(N2CCOCC2)c(Cl)c1)c1ccc([N+](=O)[O-])o1: 7.54 µM
- c1ccc(CN2CCC(Nc3nc(-c4cccs4)nc4ccccc34)CC2)cc1: 4.78 µM
- CC(C)(C)c1ccc(-c2nc(NCc3cccnc3)c3ccccc3n2)cc1: 4.81 µM
- CCCCCCC(=O)Nc1nc(C)c(-c2csc(Nc3ccccc3OC)n2)s1: 5.48 µM
- O=C(Nc1ccc(N2CCN(C(=O)c3ccc(Cl)cc3)CC2)cc1)c1ccc([N+](=O)[O-])o1: < 0.195 µM
- O=C1c2ccccc2C(=O)N1CCCCN(C(=O)c1cc([N+](=O)[O-])cc([N+](=O)[O-])c1)c1ccc(Cl)cc1: 1.23 µM
- Cc1ccc(NC(=O)c2ccc([N+](=O)[O-])o2)cc1C: < 0.195 µM
- CC1Cc2ccccc2N1C(=O)COC(=O)c1ccc(Cl)nc1 (stereo unspecified): 10.7 µM
- COc1cccc2sc(Nc3nnc(-c4ccc(F)cc4)o3)nc12: 9.19 µM
- Cc1ccccc1N=Nc1ccc(O)c2ncccc12: 21.1 µM
- Cc1ccc(Nc2c(-c3ccccn3)nc3cc(C)ccn23)cc1: 1.38 µM
- CN1CCN(C2=Cc3ccc(Cl)cc3Sc3ccc(F)cc32)CC1: 10.9 µM
- CC1(C)CC(=O)C2=C(C1)OC(N)=C([N+](=O)[O-])C2c1ccc(C#N)s1 (stereo unspecified): 10.9 µM
- CCCN(CCC)CC(O)Cn1cc(/C=C/C(=O)c2ccccc2)c2ccccc21 (stereo unspecified): 1.5 µM
- O=C(Nc1cccnc1)c1c(O)c2cccc3c2n(c1=O)CC3: 1.87 µM
- Cc1cccc(C)c1OCC(=O)Nc1cccc(-c2nnc(-c3ccccc3)o2)c1: 10.7 µM

----------
Tested on: M. tuberculosis H37Rv growth inhibition
testDetails: M. tuberculosis H37Rv growth inhibitors, H37Rv strain (AID 1626)
pIC50: −log10 of the molar value.
pIC50 by entry:
measurementLabel: pIC50

- Cc1ccc(C(=O)CC(=O)c2cc(Cl)ccc2O)cc1: 5.46
- CCOc1ccc(N=Cc2c(O)n(C(C)(C)C)c(=O)[nH]c2=O)cc1: > 6.71
- COc1cnc(-c2ccccn2)nc1Sc1ccc(C)cc1: > 6.71
- CCCn1c(NC(=O)C23CC4CC(CC(O)(C4)C2)C3)nc2ccccc21: 4.96

----------
Tested on: M. tuberculosis H37Rv growth inhibition
testDetails: M. tuberculosis H37Rv growth inhibitors, H37Rv strain (AID 1626)
measurementLabel: IC50

• O=C(NCCC1=CCCCC1)NC12CC3CC(CC(C3)C1)C2 = < 0.195 µM
• O=C(/C=C/c1cccc(Cl)c1)c1nc2ccccc2[nH]1 = 2.94 µM
• COc1ccc(CNC(=O)c2sc3nc4c(c(C(F)(F)F)c3c2N)CCC4)cc1OC = 12 µM
• O=C(Nc1cc(Cl)cc(Cl)c1)N1CCCC1 = 12.2 µM

----------
Test system: M. tuberculosis H37Rv growth inhibition
testDetails: M. tuberculosis H37Rv growth inhibitors, H37Rv strain (AID 1626)
testSettings: measured here: IC90 against H37Rv
measurementLabel: IC90

- CC(C)(C)c1cc(NCCCn2ccnc2)n2ncc(-c3ccc(Cl)cc3)c2n1: 1.43 µM
- CCOC(=O)c1ccc(NC(=O)C2C3CCC(C3)C2C(=O)O)cc1 (centres undefined): > 100 µM
- O=C(COC(=O)c1sc2ccccc2c1Cl)NC1CCCCC1: > 100 µM
- Cc1sc2nc(-c3ccccn3)[nH]c(=O)c2c1-c1ccccc1: 1.69 µM
- COc1ccc2c(c1)CCc1c-2nc2ccccc2c1N1CCOCC1: 18.6 µM
- Cc1nc2ccccc2n1/N=C/c1ccc([N+](=O)[O-])s1: < 0.195 µM
- C=CCn1c(SCc2csc(-c3ccc(C)cc3)n2)nnc1-c1ccccc1OC: 23.8 µM
- CC(C)c1ccc(CNC(=O)CSCC(=O)Nc2ccc3ccccc3c2)cc1: > 100 µM
- COc1cc(OC)cc(C(=O)Nc2nc(-c3ccccc3)c(-c3ccccc3)o2)c1: 4.94 µM
- Cc1ccc(N=Nc2ccc(O)c3ncccc23)cc1C: > 100 µM
- COc1cccc(CNc2ccccc2O)c1OCc1ccccc1F: > 100 µM
- C/C(=C\C(=O)c1ccc(C)o1)Nc1ccc2c(c1)OCO2: > 100 µM
- Cc1cc(C)n(-c2nc(Nc3ccccc3C)nc(-n3nc(C)cc3C)n2)n1: > 100 µM
- O=C(NC(Nc1nc2ccc([N+](=O)[O-])cc2s1)(C(F)(F)F)C(F)(F)F)c1ccccc1Cl: 4.17 µM

----------
Tested on: M. tuberculosis H37Rv growth inhibition
testDetails: M. tuberculosis H37Rv growth inhibitors, H37Rv strain (AID 1626)
testSettings: measured here: IC90 against H37Rv
measurementLabel: IC90

* Cc1ccc2cc(/C=C/C(=O)c3ccco3)c(Cl)nc2c1 | > 100 µM
* O=C(Nc1nc(-c2ccccn2)cs1)C1CC1 | > 100 µM
* O=C(CSCC(=O)Nc1ccc2ccccc2c1)NCc1ccccc1 | > 100 µM
* CCCN(CCC)C(=O)c1cc([N+](=O)[O-])cc2c1-c1ccc([N+](=O)[O-])cc1C2=C(C#N)C#N | 9.91 µM
* COc1cc(/C=C/C(=O)OCC(=O)NC(=O)NC23CC4CC(CC(C4)C2)C3)ccc1OCC#N | > 100 µM
* Cc1nc2ccc(N)cc2s1 | > 100 µM
* C/C=C/c1ccc(OCC(=O)OCc2csc(Nc3ccc(C)cc3)n2)c(OC)c1 | 8.62 µM
* COc1cnc(-c2ccccn2)nc1Sc1ccc(C)cc1 | 2.92 µM

----------
Tested on: M. tuberculosis H37Rv growth inhibition
testDetails: M. tuberculosis H37Rv growth inhibitors, H37Rv strain (AID 1626)
measurementLabel: IC50

* Brc1c(CSc2nncc3ccccc23)nc2ccccn12 | 5.58 µM
* O=C(Nc1nc(-c2ccccn2)cs1)c1ncc(Cl)c(Cl)c1Cl | 1.45 µM
* CC(C)(c1ccccc1)c1ccc(OCC(O)CNC2CCN(Cc3ccccc3)CC2)cc1 (centres undefined) | 4.53 µM
* Cc1cccc(NC(=O)/C=C/c2ccc([N+](=O)[O-])s2)c1 | < 0.391 µM

----------
System: M. tuberculosis H37Rv growth inhibition
testDetails: M. tuberculosis H37Rv growth inhibitors, H37Rv strain (AID 1626)
# IC50 per entry
measurementLabel: IC50

- O=C(/C=C/c1cccnc1)/C=C/c1cccnc1: 0.909 µM
- Cn1ncc2c(Nc3cccc(Cl)c3)nc(Nc3cccc(Cl)c3)nc21: 11.7 µM
- CCOc1c2c(nc3ccc(Cl)cc13)CCC2: 5.14 µM
- O=C(/C=C/c1ccc(Cl)cc1)c1cccnc1: 2.01 µM
- FC(F)(F)c1cccc(Sc2nc(-c3ccccc3)nnc2C(F)(F)F)c1: 7.32 µM
- CC1Cc2ccccc2N1C(=O)COC(=O)c1ccc(Br)o1 (configuration not stated): 16 µM
- O=C(Nc1nnc(-c2ccccc2)o1)c1nc2ccccc2s1: 6.13 µM
- Cc1ccc(C(=O)CC(SCC(=O)O)c2ccc([N+](=O)[O-])cc2)cc1 (configuration not stated): 7.91 µM
- S=c1[nH]c2ccc3ccccc3c2[nH]1: 23.7 µM
- C#CCOCCOCCOCCNc1nc(N2CCN(C(=O)[C@H](Cc3cc4ccccc4[nH]3)n3cc([C@@H](N)CC(C)C)nn3)CC2)nc(N2CCN(C(=O)[C@H](Cc3cc4ccccc4[nH]3)n3cc([C@@H](N)CC(C)C)nn3)CC2)n1: 4.23 µM
- O=C1CCC(=O)N1CNc1ccc(Oc2ccccc2)cc1: 2.58 µM
- CS(=O)(=O)Nc1cccc2cccnc12: 11.7 µM
- O=C(CSc1ncnc2c1oc1ccccc12)OCc1ccccc1: 7.79 µM
- Cc1[nH]n(C2=NCCS2)c(=O)c1N=Nc1cccc(C(F)(F)F)c1: 0.387 µM
- O=C(Nc1ccc(Oc2ccccc2)cc1)C1CC1: 14 µM
- c1ccc(-c2oc3ncnc(NCCCn4ccnc4)c3c2-c2ccccc2)cc1: 7.29 µM
- CCCCCc1cc(=O)oc2c(C(CCN3CCCCC3)c3ccc(OC)cc3)c(OC)cc(OC)c12 (configuration not stated): 2.86 µM
- CCc1cccc2c1NC(=O)C21N2CCCC2C(C(=O)c2ccc3ccccc3c2)C12C(=O)Nc1ccccc12 (configuration not stated): 23.8 µM
- COc1ccc(C(CCNCc2ccc(F)cc2)c2ccc(F)cc2)cc1 (configuration not stated): 5.7 µM
- CCOC(=O)CSc1nnc(-c2cc(OC)c(OC)c(OC)c2)o1: 1.62 µM
- c1ccc2c(Nc3ccc4c(c3)OCCO4)c3c(nc2c1)CCCC3: 11.3 µM
- Nc1nc(N)c2cc(Sc3ccc4ccccc4c3)ccc2n1: 1.61 µM
- Nc1[nH]ncc1-c1ccc(Cl)cc1: 21.6 µM
- CSc1ccc(/C=C/C(=O)c2ccc(O)cc2)cc1: 9.87 µM
- O=C(C[n+]1cc(-c2ccc(F)cc2)n2c1CCC2)N1c2ccccc2Sc2ccccc21: 38.7 µM
- O=C(c1nnsc1S(=O)c1ccc(Cl)cc1)N1CCOCC1 (configuration not stated): 8.91 µM
- O=C(Nc1nnc(-c2cccs2)o1)c1cccc(C(F)(F)F)c1: < 0.391 µM
- Cc1ccc(-c2noc(-c3cc4ccccc4oc3=O)n2)cc1: 1.5 µM
- COc1cc(CNC23CC4CC(CC(C4)C2)C3)ccc1OCc1ccccc1: 2.94 µM
- COc1cccc(-c2nnc(NC(=O)c3ccccc3Br)o2)c1: 3.79 µM
- O=C(COc1cccc(Cl)c1)Nc1ccc2c(c1)CCC2: 22.4 µM
- O=C(CNC1CCCC1)Nc1ccc(N2CCCCCC2)cc1: 8.04 µM
